Recorded values, source a melting point compilation (Tetko et al.; mined from patent text by program, amines drawn as free bases though some values may be those of a salt).

OBSERVABLE: melting point

{"COMPOUND": "COCn1c(-c2nc3c(OC)ccc(N4CCOCC4)c3s2)nc2ccc(N3CCOCC3)nc21", "melting point": "126 to 128 °C"}
{"COMPOUND": "O=C(O)c1cc(C(F)(F)F)cc(-c2ccc(Cl)c(C(=O)NCC34CC5CC(CC(C5)C3)C4)c2)n1", "melting point": "220 to 225 °C"}
{"COMPOUND": "CC(C)n1nc(-c2c(-c3ccccc3)nc(N)nc2-n2cnc3ccccc32)ccc1=O", "melting point": "242 to 244 °C"}
{"COMPOUND": "COc1cc(/C=C/C(=O)Nc2ccccc2C(=O)O)ccc1OC1CCCC1", "melting point": "96 to 98 °C"}
{"COMPOUND": "O=C1c2ccccc2C(OCC2CO2)N1c1ccccc1 (stereo not given)", "melting point": "76 °C"}

What measured melting point goes with O=[N+]([O-])c1ccc2nc(Cl)[nH]c2c1 ?
235 to 237 °C

Dear colleague, I am looking for the recorded melting point of the following compound: NS(=O)(=O)c1cc(C(=O)O)cc(NCc2ccco2)c1Oc1ccccc1
219 to 220 °C

// melting point lookup, key: COc1ccc2cc3c(cc2c1)C(=O)OC3=O
238 to 240 °C

Reported melting point, compound COc1cc2nc(S(=O)Cc3nccc(N4CCOCC4)c3F)[nH]c2cc1OC (stereo not given) : ____
213 to 215 °C

Dear colleague, I am looking for the recorded melting point of the following compound: COc1ccc2oc(N(C=O)[C@@H](Cc3ccccn3)c3ncc(-c4ccc(N5CCOCC5)cc4)n3C)cc2c1
122 to 124 °C

melting point lookup needed for O=c1c2c(Cl)cc(Cl)cc2n(Cc2ccccc2)c(=O)n1Cc1cccc(Br)c1 , thanks.
121 to 128 °C

Name the reported melting point value associated with the compound N=C(N)NC(=O)C[C@H]1c2cc(C(F)(F)F)ccc2C(=O)N1CC(F)(F)F
122 °C

Fill in: melting point of CN1CCN(NC(=O)c2cc([N+](=O)[O-])cc3c2OCCO3)CC1 is ___
210 °C

If you can, please state the reported melting point value of CCc1cccc2c3c([nH]c12)C(CC)(CC(=O)O)OCC3=O (stereo not given) .
200 to 202 °C
